test system: K86415-001-R-J1-PDC complex spheroids, viability; experiment: Anticancer human tumor K86415-001-R-J1-PDC patient-derived lung adenocarcinoma cell line growth inhibition [RAS]; settings: second compound 10 µM; first compound 0.1 µM; hits give low values
Rule: measured viability, T/C below 10% gets true (1); anything equal to or greater than 10% gets false (0).

Hello, is viability, T/C of the following compound strictly smaller than 10%? CC(C)n1nc(-c2ccc3oc(N)nc3c2)c2c(N)ncnc21 + C#Cc1c(F)ccc2cc(O)cc(-c3ncc4c(N5CC6CCC(C5)N6)nc(OCC56CCCN5CC(F)C6)nc4c3F)c12
true (1)

====

Catalogue of compounds with associated viability, T/C
system: K86415-001-R-J1-PDC complex spheroids, viability; experiment: Anticancer human tumor K86415-001-R-J1-PDC cell line growth inhibition [RAS]; settings: second compound 0.316 µM; first compound 10 µM; hits give low values;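 also: spheroids exposed to agents for seven days before readout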
Number in %, nothing else.

compound | measured target | readout type | assay value
NC1c2ccccc2OC12CCN(c1cnc3c(N4CCCc5ncccc54)n[nH]c3n1)CC2 (stereo unspecified) + C#Cc1c(F)ccc2cc(O)cc(-c3ncc4c(N5CC6CCC(C5)N6)nc(OCC56CCCN5CC(F)C6)nc4c3F)c12 | K86415-001-R-J1-PDC complex spheroids, viability | viability, T/C | 8.35
CCC(CC)c1cc(NC2CCC(N)C2)n2nccc2n1 (stereo unspecified) + C#Cc1c(F)ccc2cc(O)cc(-c3ncc4c(N5CC6CCC(C5)N6)nc(OCC56CCCN5CC(F)C6)nc4c3F)c12 | K86415-001-R-J1-PDC complex spheroids, viability | viability, T/C | 3.38
CC1(O)CCCC1n1c(=O)c(C(F)F)cc2cnc(NC3CCN(S(C)(=O)=O)CC3)nc21 (stereo unspecified) + C#Cc1c(F)ccc2cc(O)cc(-c3ncc4c(N5CC6CCC(C5)N6)nc(OCC56CCCN5CC(F)C6)nc4c3F)c12 | K86415-001-R-J1-PDC complex spheroids, viability | viability, T/C | 8.09

Value of viability, T/C reported for the compound Cc1nc(N2CCC3(CC2)COC(C)C3N)c(CO)nc1Sc1ccnc(N)c1Cl (stereo unspecified) + C=CC(=O)N1CCN(c2nc(OCC3CCCN3C)nc3c(F)c(-c4nc(N)cc(C)c4C(F)(F)F)c(Cl)cc23)C(C)C1 is 3.28

According to the records, this compound CC(=O)OC12COC1CC(O)C1(C)C(=O)C(O)C3=C(C)C(OC(=O)C(O)C(NC(=O)OC(C)(C)C)c4ccccc4)CC(O)(C(OC(=O)c4ccccc4)C21)C3(C)C (stereo unspecified) + C#Cc1c(F)ccc2cc(O)cc(-c3ncc4c(N5CC6CCC(C5)N6)nc(OCC56CCCN5CC(F)C6)nc4c3F)c12 displays viability, T/C of 28.8

Sure, the documented viability, T/C for CC(Nc1ccc2c(c1)OCCn1cc(N3C(=O)OCC3C(F)F)nc1-2)C(N)=O (stereo unspecified) + C=CC(=O)N1CCN(c2nc(OCC3CCCN3C)nc3c(F)c(-c4nc(N)cc(C)c4C(F)(F)F)c(Cl)cc23)C(C)C1 is 1.49
